- Assay Target: human CD3 on CD3-expressing cells (Jurkat, human T cells) (human, UniProt P07766 23-207; P04234 22-171)
- Sequence (P07766 23-207 limits assumed, chain 1 of 2): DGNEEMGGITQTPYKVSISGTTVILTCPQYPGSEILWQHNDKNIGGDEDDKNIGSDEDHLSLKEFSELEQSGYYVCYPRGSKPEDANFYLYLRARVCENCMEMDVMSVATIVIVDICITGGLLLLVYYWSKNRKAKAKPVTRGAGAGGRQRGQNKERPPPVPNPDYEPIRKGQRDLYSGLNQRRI
- Sequence (P04234 22-171 limits assumed, chain 2 of 2): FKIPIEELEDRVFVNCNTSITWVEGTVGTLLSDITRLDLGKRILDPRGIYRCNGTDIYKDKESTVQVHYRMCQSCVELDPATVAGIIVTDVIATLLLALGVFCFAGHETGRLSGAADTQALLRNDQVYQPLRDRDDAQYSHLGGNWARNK
- Test Name: cell-based or functional assay
Experimental Endpoint: T cell activation EC50 (pM)
Give bare numbers, in pM.

>  <Binder>
BSPSMA/CD3-004 (bispecific antibody, IgG4, V domains shown, modified (chimeric) IgG4 Fc domain; also called PSMA-VH-11810 x CD3-VH-G5) VH 1: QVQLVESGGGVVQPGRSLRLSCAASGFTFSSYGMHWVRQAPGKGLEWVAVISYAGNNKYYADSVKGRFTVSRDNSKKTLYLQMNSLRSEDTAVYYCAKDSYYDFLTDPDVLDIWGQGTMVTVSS VH 2: EVQLVESGGGLVQPGRSLRLSCAASGFTFDDYSMHWVRQAPGKGLEWVSGISWNSGSIGYADSVKGRFTISRDNAKNSLYLQMNSLRAEDTALYYCAKDGSGYGKFYYYGMDVWGQGTTVTVSS VL: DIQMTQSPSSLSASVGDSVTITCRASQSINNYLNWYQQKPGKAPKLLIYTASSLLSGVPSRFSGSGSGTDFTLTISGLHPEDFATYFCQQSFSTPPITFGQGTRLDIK

>  <Result Units>
pM

>  <T cell activation EC50>
13.4

$$$$
>  <Binder>
BSPSMA/CD3-1000 (bispecific antibody, IgG4, V domains shown, modified (chimeric) IgG4 Fc domain; also called PSMA-VH-11810 x CD3-VH-G10) VH 1: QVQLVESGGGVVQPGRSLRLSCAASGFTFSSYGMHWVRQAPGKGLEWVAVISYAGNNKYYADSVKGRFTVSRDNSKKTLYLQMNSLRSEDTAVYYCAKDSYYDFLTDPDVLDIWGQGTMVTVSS VH 2: EVQLVESGGGLVQPGRSLRLSCAASGFTFDDYSMHWVRQAPGKGLEWVSGISWNSGSKGYADSVKGRFTISRDNAKNSLYLQMNSLRAEDTALYYCAKYGSGYGKFYYYGLDVWGQGTTVTVSS VL: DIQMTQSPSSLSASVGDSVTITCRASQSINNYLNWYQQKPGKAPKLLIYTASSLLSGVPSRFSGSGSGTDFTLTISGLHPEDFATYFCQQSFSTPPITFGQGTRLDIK

>  <Result Units>
pM

>  <T cell activation EC50>
1.28

$$$$
>  <Binder>
BSPSMA/CD3-003 (bispecific antibody, IgG4, V domains shown, modified (chimeric) IgG4 Fc domain; also called PSMA-VH-11810 x CD3-VH-G) VH 1: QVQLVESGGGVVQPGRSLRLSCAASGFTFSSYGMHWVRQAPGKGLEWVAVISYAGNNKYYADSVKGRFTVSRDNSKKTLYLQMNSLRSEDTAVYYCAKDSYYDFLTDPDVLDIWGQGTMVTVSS VH 2: EVQLVESGGGLVQPGRSLRLSCAASGFTFDDYSMHWVRQAPGKGLEWVSGISWNSGSKGYADSVKGRFTISRDNAKNSLYLQMNSLRAEDTALYYCAKYGSGYGKFYHYGLDVWGQGTTVTVSS VL: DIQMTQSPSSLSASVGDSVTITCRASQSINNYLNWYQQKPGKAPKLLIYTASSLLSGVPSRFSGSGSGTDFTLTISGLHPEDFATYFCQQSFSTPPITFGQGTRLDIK

>  <Result Units>
pM

>  <T cell activation EC50>
1.23

$$$$

List reported T cell activation EC50 for each of these binders:
1. BSPSMA/CD3-900 (bispecific antibody, IgG4, V domains shown, modified (chimeric) IgG4 Fc domain; also called PSMA-VH-11810 x CD3-VH-G9) VH 1: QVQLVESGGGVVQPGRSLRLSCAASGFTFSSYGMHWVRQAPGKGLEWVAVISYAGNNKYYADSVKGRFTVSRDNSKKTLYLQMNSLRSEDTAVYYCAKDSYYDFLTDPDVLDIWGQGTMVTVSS VH 2: EVQLVESGGGLVQPGRSLRLSCAASGFTFDDYSMHWVRQAPGKGLEWVSGISWNSGSKGYADSVKGRFTISRDNAKNSLYLQMNSLRAEDTALYYCAKDGSGYGKFYHYGLDVWGQGTTVTVSS VL: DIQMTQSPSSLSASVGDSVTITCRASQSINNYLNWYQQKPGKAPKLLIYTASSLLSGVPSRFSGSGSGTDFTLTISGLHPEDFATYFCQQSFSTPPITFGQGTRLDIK
2. BSPSMA/CD3-1100 (bispecific antibody, IgG4, V domains shown, modified (chimeric) IgG4 Fc domain; also called PSMA-VH-11810 x CD3-VH-G11) VH 1: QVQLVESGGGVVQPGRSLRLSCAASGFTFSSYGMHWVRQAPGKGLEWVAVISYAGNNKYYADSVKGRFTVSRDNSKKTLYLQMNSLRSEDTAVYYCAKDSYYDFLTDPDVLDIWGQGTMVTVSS VH 2: EVQLVESGGGLVQPGRSLRLSCAASGFTFDDYSMHWVRQAPGKGLEWVSGISWNSGSKGYADSVKGRFTISRDNAKNSLYLQMNSLRAEDTALYYCAKYGSGYGKFYHYGMDVWGQGTTVTVSS VL: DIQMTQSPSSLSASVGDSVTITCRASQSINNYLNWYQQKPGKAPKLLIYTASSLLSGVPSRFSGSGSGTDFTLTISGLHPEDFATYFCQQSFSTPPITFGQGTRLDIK

Reply |
1: 1.12; 2: 1.11

List reported T cell activation EC50 for each of these binders:
1. BSPSMA/CD3-300 (bispecific antibody, IgG4, V domains shown, modified (chimeric) IgG4 Fc domain; also called PSMA-VH-11810 x CD3-VH-G3) VH 1: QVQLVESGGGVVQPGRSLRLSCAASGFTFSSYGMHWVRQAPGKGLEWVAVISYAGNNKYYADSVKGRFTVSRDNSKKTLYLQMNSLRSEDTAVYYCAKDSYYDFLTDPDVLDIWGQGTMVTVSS VH 2: EVQLVESGGGLVQPGRSLRLSCAASGFTFDDYSMHWVRQAPGKGLEWVSGISWNSGSIGYADSVKGRFTISRDNAKNSLYLQMNSLRAEDTALYYCAKDGSGYGYFYYYGMDVWGQGTTVTVSS VL: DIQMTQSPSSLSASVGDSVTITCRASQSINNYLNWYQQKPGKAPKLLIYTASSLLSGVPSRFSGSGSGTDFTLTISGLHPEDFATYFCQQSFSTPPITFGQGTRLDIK
2. BSPSMA/CD3-005 (bispecific antibody, IgG4, V domains shown, modified (chimeric) IgG4 Fc domain; also called PSMA-VH-11810 x CD3-VH-G20) VH 1: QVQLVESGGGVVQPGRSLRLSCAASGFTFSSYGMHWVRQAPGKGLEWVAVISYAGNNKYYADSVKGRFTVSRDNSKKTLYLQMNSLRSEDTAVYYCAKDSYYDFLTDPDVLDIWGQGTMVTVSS VH 2: EVQLVESGGGLVQPGRSLRLSCAASGFTFDDYSMHWVRQAPGKGLEWVSGISWNSGSIGYADSVKGRFTISRDNAKNSLYLQMNSLRAEDTALYYCAKYGSGYGKFYYYGMDVWGQGTTVTVSS VL: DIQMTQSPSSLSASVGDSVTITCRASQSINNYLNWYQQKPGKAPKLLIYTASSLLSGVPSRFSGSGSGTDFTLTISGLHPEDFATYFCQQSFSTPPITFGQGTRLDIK

Reply |
[18.5, 6.11]
